FYI, the data here is from paper PMC5479578.

Target: T1, NHERF1 PDZ1 domain (1-140) (human, UniProt O14745 1-140)
T1 sequence (looked up): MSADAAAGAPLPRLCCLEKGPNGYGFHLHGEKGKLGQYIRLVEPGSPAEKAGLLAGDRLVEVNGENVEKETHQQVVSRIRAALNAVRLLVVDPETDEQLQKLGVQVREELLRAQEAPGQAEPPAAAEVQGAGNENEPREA
Experiment: fluorescence polarisation
Ends that are not written are not given here. * marks the point of attachment. FITC = O=C1OC2(c3ccc(O)cc3Oc3cc(O)ccc32)c2ccc(NC(=S)*)cc21
ATTRIBUTE MEASURED: pKd
In textbook form, pKd equals minus log to base ten of the concentration in mol/L.

Looking up {FITC}-LQEEWETVM [FITC-labeled carboxy-terminal PTHR 9-residue peptide] , I see its pKd listed as 5.33
